Please respond with reported IC50 for every item in the list.
- SYSTEM NAME: protein-protein interaction between Kras and SOS1 (biotin-tagged human Kras loaded with GDP, His-tagged human SOS1) (Homo sapiens (Human), UniProt P01116, G12D)
- METHOD DESCRIPTION: Protein-protein interaction inhibition between Kras and SOS1 (KrasG12D-SOS PPI) using AlphaScreen
- Format: biochemical
- CONDITIONS USED: AlphaScreen; biotin-tagged human Kras loaded with GDP, His-tagged human SOS1; read-out: KRAS G12D-SOS PPI IC50
Bridge positions count the residues as written; N and C are the ends. Square brackets hold non-standard residues; d marks the D form. Peptide text beside a SMILES is read from it. * marks the point of attachment. hPhe(3-Cl-4-CF3) = N[C@@H](CCc1ccc(C(F)(F)F)c(Cl)c1)C(=O)O; NMePhe(4-Cl) = CN[C@@H](Cc1ccc(Cl)cc1)C(=O)O; NMeCha = CN[C@@H](CC1CCCCC1)C(=O)O; NMeD = CN[C@@H](CC(=O)O)C(=O)O; NMeL = CN[C@@H](CC(C)C)C(=O)O; NMeV = CN[C@H](C(=O)O)C(C)C; NMeA = CN[C@@H](C)C(=O)O; Piperidide = C1CCN(*)CC1; Ac5c = NC1(C(=O)O)CCCC1; Aze = O=C(O)[C@@H]1CCN1; Sar = CNCC(=O)O
Kindly report the value followed by its unit.

[[record]]
molecule = "CC[C@H](C)[C@@H]1NC(=O)[C@H](CC(C)C)N(C)C(=O)C[C@@H](C(=O)N2CCCCC2)N(C)C(=O)[C@H](C(C)C)N(C)C(=O)C2(CCCC2)NC(=O)[C@@H]2CCCN2C(=O)[C@H](CCc2ccc(C(F)(F)F)c(Cl)c2)NC(=O)CN(C)C(=O)[C@H](Cc2ccc(Cl)cc2)N(C)C(=O)[C@@H]2CCN2C(=O)[C@H](C)N(C)C1=O [Compound 680] ([NMeL]I[NMeA][Aze][NMePhe(4-Cl)][Sar][hPhe(3-Cl-4-CF3)]P[Ac5c][NMeV][NMeD]-Piperidide; lactam N-11)"
measured_property = "IC50"
endpoint_value = "9.9 nM"


Turning to the following molecule.
Per the record, CC[C@H](C)[C@@H]1NC(=O)[C@H](C)N(C)C(=O)C[C@@H](C(=O)N2CCCCC2)N(C)C(=O)[C@H](C(C)C)N(C)C(=O)C2(CCCC2)NC(=O)[C@H](Cc2ccc(Cl)cc2)N(C)C(=O)[C@H](CCc2ccc(C(F)(F)F)c(Cl)c2)NC(=O)CN(C)C(=O)[C@H](CC2CCCCC2)N(C)C(=O)CN(C)C(=O)CN(C)C1=O [Compound 718] ([NMeA]I[Sar][Sar][NMeCha][Sar][hPhe(3-Cl-4-CF3)][NMePhe(4-Cl)][Ac5c][NMeV][NMeD]-Piperidide; lactam N-11) has IC50 of 39 nM

* * *

- SYSTEM NAME: protein-protein interaction between Kras and SOS1 (biotin-tagged human Kras loaded with GDP, His-tagged human SOS1) (Homo sapiens (Human), UniProt P01116, G12D)
- METHOD DESCRIPTION: Protein-protein interaction inhibition between Kras and SOS1 (KrasG12D-SOS PPI) using AlphaScreen;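 also: kras produced in E. coli, Ni-coupled donor beads and streptavidin acceptor beads, excitation 680 nm with emission detected at 520–620 nm via singlet oxygen transfer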
- Type: biochemical
- CONDITIONS USED: AlphaScreen; biotin-tagged human Kras loaded with GDP, His-tagged human SOS1; read-out: KRAS G12D-SOS PPI IC50
Bridge positions count the residues as written; N and C are the ends. Square brackets hold non-standard residues; d marks the D form. Peptide text beside a SMILES is read from it. * marks the point of attachment. hPhe(3,5-F2-4-CF3) = N[C@@H](CCc1cc(F)c(C(F)(F)F)c(F)c1)C(=O)O; NEtPhe(4-Me) = CCN[C@@H](Cc1ccc(C)cc1)C(=O)O; NMeI = CC[C@H](C)[C@H](NC)C(=O)O; NMeD = CN[C@@H](CC(=O)O)C(=O)O; NMeL = CN[C@@H](CC(C)C)C(=O)O; NMeA = CN[C@@H](C)C(=O)O; Pyrrolidide = C1CCN(*)C1; Ac5c = NC1(C(=O)O)CCCC1; Aze = O=C(O)[C@@H]1CCN1; Sar = CNCC(=O)O
MEASURED PROPERTY: pIC50
One number for each entry, as −log10 of the molar value.

Per the record, CC[C@H](C)[C@@H]1NC(=O)[C@H](CC(C)C)N(C)C(=O)C[C@@H](C(=O)N2CCCC2)N(C)C(=O)[C@H]([C@@H](C)CC)N(C)C(=O)C2(CCCC2)NC(=O)[C@@H]2CCCN2C(=O)[C@H](CCc2cc(F)c(C(F)(F)F)c(F)c2)NC(=O)CN(C)C(=O)[C@H](Cc2ccc(C)cc2)N(CC)C(=O)[C@@H]2CCN2C(=O)[C@H](C)N(C)C1=O [Compound 1351] ([NMeL]I[NMeA][Aze][NEtPhe(4-Me)][Sar][hPhe(3,5-F2-4-CF3)]P[Ac5c][NMeI][NMeD]-Pyrrolidide; lactam N-11) has pIC50 of 9.09

FYI, the data here is from patent US20240148821A1.
